Catalogue of EC50 hGlucagon-R (cAMP) readings, one per entry.
- target.under.test: human glucagon receptor (human, UniProt P47871 26-477)
- Sequence (P47871 26-477): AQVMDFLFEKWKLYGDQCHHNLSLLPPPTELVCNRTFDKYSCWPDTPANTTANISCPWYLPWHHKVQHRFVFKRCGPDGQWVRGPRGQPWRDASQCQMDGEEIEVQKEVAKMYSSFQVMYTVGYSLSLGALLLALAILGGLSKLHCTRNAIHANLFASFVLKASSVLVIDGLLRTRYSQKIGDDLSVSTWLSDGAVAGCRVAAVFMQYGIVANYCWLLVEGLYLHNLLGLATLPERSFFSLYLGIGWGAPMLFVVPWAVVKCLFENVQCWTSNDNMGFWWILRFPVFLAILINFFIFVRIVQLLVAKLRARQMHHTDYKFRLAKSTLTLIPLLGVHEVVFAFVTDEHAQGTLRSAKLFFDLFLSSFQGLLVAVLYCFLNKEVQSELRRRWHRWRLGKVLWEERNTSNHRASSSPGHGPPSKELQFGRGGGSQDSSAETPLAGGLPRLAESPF
- test: cell-based or functional assay
Numbered stars: 1 amine (or outer) side, 2 acyl side, 3 side chain; on linkers, the order of the positions; unused ones are H or OH. Square brackets hold non-standard residues; d marks the D form. Side chains are listed from the residue outwards. Ends that are not written are not given here. γGlu = O=C(O)[C@H](CCC(=O)[*:2])N[*:1]; X70 = not defined here; Aib = CC(C)(N)C(=O)O
# include the unit after the value

>  <binder>
HXQGTFTSDLSKQKDSRRAXDFIEWLKNGGPSSGAPPPS (dSer at 2; K(γE-x53) at 14; Aib at 20; C-terminal NH2) [SEQ ID NO: 118]

>  <EC50 hGlucagon-R (cAMP)>
4.3 pM

$$$$

[Q] Indicate its recorded EC50 hGlucagon-R (cAMP); the binder in question is HXQGTFTSDLSKQKESRRAQDFIEWLKSGGPSSGAPPPS (dSer at 2; K(γE-x53) at 14; C-terminal NH2) [SEQ ID NO: 129]
[A] 4.1 pM

[Q] Indicate its recorded EC50 hGlucagon-R (cAMP); the binder in question is HXQGTFTSDLSKQKESRAAXLFIEWLKAGGPSSGAPPPS (dSer at 2; K(γE-x53) at 14; Aib at 20; C-terminal NH2) [SEQ ID NO: 46]
[A] 25.1 pM

[Q] Indicate its recorded EC50 hGlucagon-R (cAMP); the binder in question is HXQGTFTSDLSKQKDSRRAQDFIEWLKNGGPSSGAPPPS (dSer at 2; K(γE-x53) at 14; C-terminal NH[(CH2-CH2-O)4-CH2-CH2-COOH]) [SEQ ID NO: 104]
[A] 1.1 pM

[Q] Indicate its recorded EC50 hGlucagon-R (cAMP); the binder in question is HXQGTFTSDLSKQKESRRAXDFIEWLKAGGPSSGAPPPS (dSer at 2; K(γE-x53) at 14; Aib at 20; C-terminal NH2) [SEQ ID NO: 75]
[A] 12.5 pM

[Q] Indicate its recorded EC50 hGlucagon-R (cAMP); the binder in question is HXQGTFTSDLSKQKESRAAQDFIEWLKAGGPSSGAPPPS (dSer at 2; K(γE-γE-x53) at 14; C-terminal NH2) [SEQ ID NO: 49]
[A] 2.9 pM

[Q] Indicate its recorded EC50 hGlucagon-R (cAMP); the binder in question is HXHGTFTSDLSKQKEEEAARLFIEWLKAGGPSSGAPPPS (dSer at 2; K(γE-X70) at 14; C-terminal NH2) [SEQ ID NO: 219]
[A] 3.7 pM

[Q] Indicate its recorded EC50 hGlucagon-R (cAMP); the binder in question is HXQGTFTSDLSKQKDSRRAQDFIEWLKDGGPSSGAPPPS (dSer at 2; K(γE-x53) at 14; C-terminal NH2) [SEQ ID NO: 80]
[A] 1 pM

[Q] Indicate its recorded EC50 hGlucagon-R (cAMP); the binder in question is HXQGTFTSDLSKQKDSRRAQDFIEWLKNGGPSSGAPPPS (dSer at 2; K(γE-x53) at 14; C-terminal NH[(CH2)17-CH3]) [SEQ ID NO: 109]
[A] 28.6 pM

[Q] Indicate its recorded EC50 hGlucagon-R (cAMP); the binder in question is HXQGTFTSDLSKQKDEQRAKLFIEWLKAXGPSSGAPPPS (Aib at 2; K(γE-x70) at 14; dAla at 29; C-terminal NH2) [SEQ ID NO: 200]
[A] 4.4 pM

[Q] Indicate its recorded EC50 hGlucagon-R (cAMP); the binder in question is H[Aib]QGTFTSDLSKQK([γGlu-X70])DEQRAKDFIEWLKSGGPSSGAPPPS-NH2 (reading uncertain) [SEQ ID NO: 175]
[A] 3.1 pM

[Q] Indicate its recorded EC50 hGlucagon-R (cAMP); the binder in question is HXQGTFTSDLSKQKESRAAQLFIEWLKAXGPSSGAPPPS (Aib at 2; K(γE-x76) at 14; dAla at 29; C-terminal NH2) [SEQ ID NO: 204]
[A] 12.5 pM
